Here we list molecules with their recorded Ki when tested on Alpha carbonic anhydrase (Stylophora pistillata, UniProt B5SU02).
Sequence (B5SU02 whole entry): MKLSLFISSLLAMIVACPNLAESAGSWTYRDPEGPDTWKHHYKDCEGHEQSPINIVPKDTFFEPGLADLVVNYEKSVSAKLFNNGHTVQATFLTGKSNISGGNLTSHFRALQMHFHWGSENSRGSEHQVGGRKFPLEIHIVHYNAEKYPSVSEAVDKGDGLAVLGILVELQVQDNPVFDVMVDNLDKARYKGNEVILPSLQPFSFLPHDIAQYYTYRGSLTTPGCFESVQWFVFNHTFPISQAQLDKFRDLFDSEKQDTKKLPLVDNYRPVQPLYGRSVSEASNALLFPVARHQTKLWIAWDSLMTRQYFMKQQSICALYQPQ
reportedProperty: Ki (nM)

molecule: Nc1ccc(S(N)(=O)=O)cc1 [SULFANILAMIDE]
systemTested: Alpha carbonic anhydrase (Stylophora pistillata, UniProt B5SU02)
reportedProperty: Ki
assayResult: 364
//
molecule: Nc1ccc(S(N)(=O)=O)cc1I
systemTested: Alpha carbonic anhydrase (Stylophora pistillata, UniProt B5SU02)
reportedProperty: Ki
assayResult: 88.3
//
molecule: Nc1ccc(S(=O)(=O)NCCc2ccc(S(N)(=O)=O)cc2)cc1
systemTested: Alpha carbonic anhydrase (Stylophora pistillata, UniProt B5SU02)
reportedProperty: Ki
assayResult: 19.7
//
molecule: Nc1ccc(S(N)(=O)=O)cc1Cl
systemTested: Alpha carbonic anhydrase (Stylophora pistillata, UniProt B5SU02)
reportedProperty: Ki
assayResult: 87.5
//
molecule: Nc1cc(C(F)(F)F)c(S(N)(=O)=O)cc1S(N)(=O)=O
systemTested: Alpha carbonic anhydrase (Stylophora pistillata, UniProt B5SU02)
reportedProperty: Ki
assayResult: 367
//
molecule: NS(=O)(=O)c1ccc(CO)cc1
systemTested: Alpha carbonic anhydrase (Stylophora pistillata, UniProt B5SU02)
reportedProperty: Ki
assayResult: 768
//
molecule: Nc1nccc(Nc2ccc(S(N)(=O)=O)cc2)n1
systemTested: Alpha carbonic anhydrase (Stylophora pistillata, UniProt B5SU02)
reportedProperty: Ki
assayResult: 25.4
//
molecule: NCCc1ccc(S(N)(=O)=O)cc1
systemTested: Alpha carbonic anhydrase (Stylophora pistillata, UniProt B5SU02)
reportedProperty: Ki
assayResult: 94.3
//
molecule: Nc1ccc(S(N)(=O)=O)cc1Br
systemTested: Alpha carbonic anhydrase (Stylophora pistillata, UniProt B5SU02)
reportedProperty: Ki
assayResult: 104
//
molecule: Cn1nc(S(N)(=O)=O)sc1=N
systemTested: Alpha carbonic anhydrase (Stylophora pistillata, UniProt B5SU02)
reportedProperty: Ki
assayResult: 91.9
//
molecule: NS(=O)(=O)c1ccc(S(=O)(=O)Nc2cccc3c(Cl)c[nH]c23)cc1
systemTested: Alpha carbonic anhydrase (Stylophora pistillata, UniProt B5SU02)
reportedProperty: Ki
assayResult: 163
//
molecule: Cc1ccc(S(N)(=O)=O)cc1 [P-TOLUENESULFONAMIDE]
systemTested: Alpha carbonic anhydrase (Stylophora pistillata, UniProt B5SU02)
reportedProperty: Ki
assayResult: 614
//
molecule: NNc1ccccc1S(N)(=O)=O
systemTested: Alpha carbonic anhydrase (Stylophora pistillata, UniProt B5SU02)
reportedProperty: Ki
assayResult: 2510
//
molecule: Nc1ccc(S(=O)(=O)NCc2ccc(S(N)(=O)=O)cc2)cc1
systemTested: Alpha carbonic anhydrase (Stylophora pistillata, UniProt B5SU02)
reportedProperty: Ki
assayResult: 29.8
//
molecule: NCc1ccc(S(N)(=O)=O)cc1 [MAFENIDE]
systemTested: Alpha carbonic anhydrase (Stylophora pistillata, UniProt B5SU02)
reportedProperty: Ki
assayResult: 82.5
//
molecule: NS(=O)(=O)c1ccc(CCO)cc1
systemTested: Alpha carbonic anhydrase (Stylophora pistillata, UniProt B5SU02)
reportedProperty: Ki
assayResult: 770
//
molecule: Nc1ccc(S(N)(=O)=O)cc1F
systemTested: Alpha carbonic anhydrase (Stylophora pistillata, UniProt B5SU02)
reportedProperty: Ki
assayResult: 75.1
//
molecule: Cc1ccc(-c2cc(C(F)(F)F)nn2-c2ccc(S(N)(=O)=O)cc2)cc1
systemTested: Alpha carbonic anhydrase (Stylophora pistillata, UniProt B5SU02)
reportedProperty: Ki
assayResult: 34.2
//
molecule: NS(=O)(=O)c1ccc(C(=O)O)cc1 [CARZENIDE]
systemTested: Alpha carbonic anhydrase (Stylophora pistillata, UniProt B5SU02)
reportedProperty: Ki
assayResult: 435
//
molecule: Nc1nnc(S(N)(=O)=O)s1
systemTested: Alpha carbonic anhydrase (Stylophora pistillata, UniProt B5SU02)
reportedProperty: Ki
assayResult: 105
//
molecule: Nc1cc(Cl)c(S(N)(=O)=O)cc1S(N)(=O)=O
systemTested: Alpha carbonic anhydrase (Stylophora pistillata, UniProt B5SU02)
reportedProperty: Ki
assayResult: 295
//
molecule: O=C1NS(=O)(=O)c2ccccc21
systemTested: Alpha carbonic anhydrase (Stylophora pistillata, UniProt B5SU02)
reportedProperty: Ki
assayResult: 40.3
//
molecule: Nc1ccc(S(=O)(=O)Nc2nnc(S(N)(=O)=O)s2)cc1
systemTested: Alpha carbonic anhydrase (Stylophora pistillata, UniProt B5SU02)
reportedProperty: Ki
assayResult: 27.6
//
molecule: CCN[C@H]1CN(CCCOC)S(=O)(=O)c2sc(S(N)(=O)=O)cc21 [BRINZOLAMIDE]
systemTested: Alpha carbonic anhydrase (Stylophora pistillata, UniProt B5SU02)
reportedProperty: Ki
assayResult: 48.2
//
molecule: CC1(C)O[C@@H]2[C@@H](CO[C@@]3(COS(N)(=O)=O)OC(C)(C)O[C@@H]23)O1 [TOPIRAMATE]
systemTested: Alpha carbonic anhydrase (Stylophora pistillata, UniProt B5SU02)
reportedProperty: Ki
assayResult: 29.1
//
molecule: NS(=O)(=O)c1nnc(NS(=O)(=O)c2ccccc2)s1 [BENZOLAMIDE]
systemTested: Alpha carbonic anhydrase (Stylophora pistillata, UniProt B5SU02)
reportedProperty: Ki
assayResult: 20.4
